Origin of the recorded values: the supplement of paper PMC4466140

Measured SPOT peptide array binding signal intensity values are reported for all entries that follow.
molecular target: SpNbp2; assay: SPOT peptide array binding signal intensity (averaged, normalized) (arbitrary units (background-subtracted, floor 0; scale differs between SH3 domains)); higher = stronger binding of the SH3 domain to the peptide
A bare number is all that is needed in reply.

Request: SPOT peptide array binding signal intensity for NTMKKRPAPPSLPSL ?
Result: 308

Request: Which SPOT peptide array binding signal intensity value is on record for RKLRTVPGVPLIHLT ?
Result: 7.5

Request: So what does the record say about SPOT peptide array binding signal intensity for VSKLRSPNTPRRLRK ?
Result: 109

Request: Name the reported SPOT peptide array binding signal intensity value associated with the binder VPPPMQPPPIESSNL
Result: 46

Request: Fill in the blank: the reported SPOT peptide array binding signal intensity of PVLPPPRSPNRPTLS is ____.
Result: 8

Request: May I ask what SPOT peptide array binding signal intensity has been recorded for LYKRKPILLPDPKPL ?
Result: 5.5

Further cases:
Request: Entry APKREAPKPPANTSP has what SPOT peptide array binding signal intensity?
Result: 1

Request: Entry under review: EQEEIAPSLPSRNSI . Reported SPOT peptide array binding signal intensity?
Result: 5.5
